Test system: brains, heart, liver, muscle, and DRG of the NHPs
Experiment: Maturation of TTM-001 and TTM-002 capsids, NGS enrichment in NHP tissues
Assay type: in vivo
Settings: NHP muscle; relative to AAV9 control
Each entry below carries its recorded Fold Enrichment relative to AAV9, Muscle (NHP).

Worked examples, 4 sequences total:
KTINGSGSPHSKLKSQQT : 0.000 fold
KTIIKNGSPHSKAQNQQT : 0.000 fold
KTINGSGSPHSKAQVPPT : 0.000 fold
KSDKGSGSPHSKAQNQQT : 0.000 fold

Item: KTINGSGSPHSKVPNLQT Test system: brains, heart, liver, muscle, and DRG of the NHPs Read-out: Fold Enrichment relative to AAV9, Muscle (NHP) Value: ? 0.000 fold

Could you do the same for KTIIGGGSPHSKAQNPQT , please? 0.000 fold

---

Test system: brain
Assay: NGS fold enrichment of synthetic library (passage 3) in BALB/c mice, first cross-species screen
Type: in vivo
Details: synthetic library passage 3, intravenous, RNA NGS, brain of BALB/c mice, relative to wild-type AAV9
Each entry below carries its recorded Fold enrichment over AAV9 in the brain of Mice (BALB/c).
// return numeric value only (unit: fold, not printed)

GSGQNQQTSGTTNC : 0.806

Item: GSGKNQQRPGLDQT Test system: brain Read-out: Fold enrichment over AAV9 in the brain of Mice (BALB/c) Value: ? 0.385

Could you do the same for GSGQNQQGTLLHQT , please? 1.303

Could you do the same for GSGQNQKILTLDQT , please? 0.314

Could you do the same for GSGQNQHLSSFVQT , please? 0.364

Could you do the same for GSGQNQQTPLRPPT , please? 0.472

Could you do the same for GSSTLVTIGKNQQT , please? 0.819

Could you do the same for GSGQNAQQAAAQQT , please? 0.604

Could you do the same for GSGQNQYSSTNPQT , please? 0.535

Could you do the same for GTPTSPSSGQNQQT , please? 0.662

Could you do the same for GDSSLRHSGQNQQT , please? 0.412

Could you do the same for GNGQNQQHSILHGT , please? 0.415

Could you do the same for GSGQNQQTHGGLRD , please? 1.298

Could you do the same for GSGQNQQTVQSNLV , please? 0.698

Could you do the same for GSGIIPVSSQNQQT , please? 0.253

Could you do the same for GSIAHVGTGQNQQT , please? 1.045

Could you do the same for GSVHLSVTGQNQQT , please? 0.282

Could you do the same for GSGQNRAHAFLQQT , please? 1.271

---

Test system: brains, heart, liver, muscle, and DRG of the NHPs
Test: Maturation of TTM-001 and TTM-002 capsids, NGS enrichment in NHP tissues
Assay type: in vivo
Settings: NHP heart; relative to AAV9 control
MEASUREMENT LABEL: Fold Enrichment relative to AAV9, Heart (NHP) (fold)
// return numeric value only (unit: fold, not printed)

Worked examples, 5 sequences total:
KTINGSGSPHSKAQPLGT : 0.004
KTINGSGSPHSKLKSQQT : 0.296
KTSNGSGSPHSKAQNYQT : 0.082
KTINGSGSPHSKVPNLQT : 0.029
KTINGSGSPHSKAQPART : 0.000

Tell me the measured Fold Enrichment relative to AAV9, Heart (NHP) of KAINGSGSPHSKAQSQQI , please. 0.000

Could you do the same for KTINGSGSPHSKAPNLQI , please? 0.044

Could you do the same for KTDRNSGSPHSKAQNQQT , please? 0.000

Could you do the same for KTINGSGSPHSKARGLQT , please? 0.000

Could you do the same for KNNLGSGSPHSKAQNQQT , please? 0.019

Could you do the same for KTINGSGSPHSKTQNHQN , please? 0.048

Could you do the same for KSINGSGSPHSKTQSQQT , please? 3.017

Could you do the same for KTINGSGSPHSKAQGSLT , please? 0.006

Could you do the same for KTVNGSGSPHSKAQHLQT , please? 0.036

Could you do the same for KTINGSGSPHSKAPSMQT , please? 0.000

Could you do the same for KTVNASGSPHSKAQNQLT , please? 0.000

Could you do the same for KSDKGSGSPHSKAQNQQT , please? 0.000

Could you do the same for KTINGSGSPHSKASPRQT , please? 0.005

Could you do the same for KTINGSGSPHSKAQVRNT , please? 0.101

Could you do the same for KSEKGSGSPHSKAQNQQT , please? 0.010

Could you do the same for KNVNGSGSPHSKAQNQQT , please? 0.000

Could you do the same for KTERGSGSPHSKAQNQQT , please? 0.030

---

Test system: brains, heart, liver, muscle, and DRG of the NHPs
Experiment: Maturation of TTM-001 and TTM-002 capsids, NGS enrichment in NHP tissues
Assay type: in vivo
Conditions: NGS fold-enrichment, muscle of NHPs, relative to AAV9 control
Each entry below carries its recorded Fold Enrichment relative to AAV9, Muscle (NHP).
// return numeric value only (unit: fold, not printed)

Worked examples, 4 sequences total:
KTINGSGSPHSKAQKLNT : 0.000
KTINGSGSPHSKAQYIHT : 0.033
KTINGSGSPHSKAQAMHT : 0.010
KTEFVSGSPHSKAQNQQT : 0.000

Item: KTINGNGSPHSKAQNPLT Test system: brains, heart, liver, muscle, and DRG of the NHPs Read-out: Fold Enrichment relative to AAV9, Muscle (NHP) Value: ? 0.000

---

Test system: brain
Assay: Matured TTM-001 and TTM-002 variants, NGS enrichment in mouse brain
Type: in vivo, mice
Conditions: NGS fold-enrichment, brain of mice, relative to AAV9 control
MEASUREMENT LABEL: Fold Enrichment relative to AAV9, Brain (Mouse) (fold)
// return numeric value only (unit: fold, not printed)

Tell me the measured Fold Enrichment relative to AAV9, Brain (Mouse) of KTESASGSPHSKAQNQQT , please. 80.500

---

Tested on: brains, heart, liver, muscle, and DRG of the NHPs
Test: Maturation of TTM-001 and TTM-002 capsids, NGS enrichment in NHP tissues
Format: in vivo
Conditions: NGS fold-enrichment, NHP DRG, relative to AAV9 control
Each entry below carries its recorded Fold Enrichment relative to AAV9, DRG (NHP).

KTVNGSGSPHSKARDQQT : 0.123 fold
KTINGHDSPHKSGQSVQT : 0.010 fold
KAINGHDSPHKSAQNQET : 0.000 fold
KTERISGSPHSKAQNQQT : 0.000 fold
KSVNGNGSPHSKAQNQQT : 0.000 fold
KAISGHDSPHKSGLNQQT : 0.000 fold
KTERNSGSPHSKAQNQQT : 0.000 fold
KTTNGHDSPHKSGQTQLT : 0.000 fold
KVINGHDSPHKSGQTQQT (peptide inserted in AAV capsid) : 0.000 fold
KTINGSGSPHGWVQNQQT : 0.000 fold

Tell me the measured Fold Enrichment relative to AAV9, DRG (NHP) of KTINGSGSPHSKAQPAKT , please. 0.331 fold

Could you do the same for KTIDGGGSPHSKAQNKQT , please? 0.000 fold

Could you do the same for KTTNGQDSPHKSGQNQQS , please? 0.000 fold

Could you do the same for KELHGSGSPHSKAQNQQT , please? 0.000 fold

Could you do the same for KTINGSGSPHSKAQFPST , please? 0.000 fold

Could you do the same for KTESRHDSPHKSGQNQQT , please? 0.000 fold

---

Tested on: brain, spinal cord, and DRG of the NHPs
Test: NGS fold enrichment of synthetic library (passage 3) in NHPs, first cross-species screen
Type: in vivo, cynomolgus macaques (Macaca fascicularis)
Conditions: synthetic library passage 3, intravenous, RNA from brain of NHPs, NGS, relative to wild-type AAV9
MEASUREMENT LABEL: Fold enrichment over AAV9 in the brain of NHPs
Quote the value and follow it with the unit of measurement.

GSLMDVHRGQNQQT : 1.150 fold

Tell me the measured Fold enrichment over AAV9 in the brain of NHPs of GSGTHLVSLQNQQT , please. 1.392 fold

Could you do the same for GSGIPSVKFQNQQT , please? 1.281 fold

Could you do the same for GSGQNQSHYPSQQT , please? 1.228 fold

---

Test system: brains, heart, liver, muscle, and DRG of the NHPs
Experiment: Maturation of TTM-001 and TTM-002 capsids, NGS enrichment in NHP tissues
Assay type: in vivo
Details: NHP liver, DNA; relative to AAV9 control
Each entry below carries its recorded Fold Enrichment relative to AAV9, Liver DNA (NHP).
// return numeric value only (unit: fold, not printed)

Worked examples, 3 sequences total:
KTINGSGSPHSKAQVPST : 0.139
KTVNGSGSPHSKAQHLQT : 0.409
KTINGSGSPHSKAQGAIT : 0.161

Let us move to another entry and its Fold Enrichment relative to AAV9, Liver DNA (NHP).
Tell me the measured Fold Enrichment relative to AAV9, Liver DNA (NHP) of KTGNGSGSPHSKAQIQQT , please. 0.012
